For each entry below, report its CC50 at 7 days value.
- measurement notes: Cytotoxicity test (WST-1) in HepG2 NTCP-myc cells
- Assay type: cell-based
- condition context: human, 7 days culture, read-out: CC50 (50% cytotoxic concentration)

### Prompt Item under review: COc1nc(N)nc2c1ncn2[C@@H]1O[C@H](CO)C(O)C1F (stereo partly drawn) . Reported CC50 at 7 days?
### Response > 500 µM

### Prompt Repeat for the following compound: N#Cc1nc(N)nc2c1ncn2[C@@H]1O[C@H](CO)C(O)C1F (stereo partly drawn)
### Response > 500 µM

### Prompt Similarly, Nc1nc(N)c2ncn([C@@H]3O[C@H](CO)C(O)C3F)c2n1 (stereo partly drawn) ?
### Response > 500 µM

### Prompt Another compound: Nc1nc(I)c2ncn([C@@H]3O[C@H](CO)C(O)C3F)c2n1 (stereo partly drawn)
### Response > 500 µM

### Prompt Continue with Nc1nc(Cl)c2ncn([C@@H]3O[C@H](CO)C(O)C3F)c2n1 (stereo partly drawn)
### Response > 500 µM

### Prompt One more compound: Nc1nc(F)c2ncn([C@@H]3O[C@H](CO)C(O)C3F)c2n1 (stereo partly drawn)
### Response 337 µM
